System: HBV-infected NTCP-HepG2 cells, secreted HBsAg
method-notes: microbe, parasite or virus in culture
Type: cell-based, hepatitis B virus (genotype D, AD38-derived)
setup-conditions: Hepatitis B virus, 120 h, secreted HBsAg in supernatant after 5 days; geometric mean of minimum four determinations; read-out: NTCP HBsAg EC50
metric-name: EC50 (nM)
# value in nM; strip the unit string

Report EC50 for COCCCOc1cc2c(cc1Cl)-c1cc(=O)c(C(=O)O)cn1N1[C@H]2COCC1(C)C (single isomer, unassigned) [Example 39] please.
680

Again, but for CC1(C)CC[C@@H]2c3cc(OCC4CC(F)(F)C4)c(Cl)cc3-c3cc(=O)c(C(=O)O)cn3N21 [Example 54]
0.75

Now the molecule COCCCOc1cc2c(cc1Cl)-c1cc(=O)c(C(=O)O)cn1N1[C@H]2CCCC1(C)C (single isomer, unassigned) [Example 13]
34

What about this molecule? [2H]C([2H])(OC)C([2H])([2H])C([2H])([2H])Oc1cc2c(cc1COC)-c1cc(=O)c(C(=O)O)cn1N1[C@@H]2CCC1(C)C [Compound 118]
4.1

Similarly, CC(C)(O)C#Cc1cc2c(cc1C1CC1)-c1cc(=O)c(C(=O)O)cn1N1[C@@H]2CCC1(C)C [Example 71] ?
2.5

Try COc1cc2c(cc1OCCCOc1ccccc1)[C@H]1CCC(C)(C)N1n1cc(C(=O)O)c(=O)cc1-2 [Example 61] next.
0.94

Ok, now COCCCOc1cc2c(cc1COC)-c1cc(=O)c(C(=O)O)cn1N1[C@@H]2CCC12CC2 [Example 87]
4.2

Would you kindly repeat that for COCCCOc1cc2c(cc1Cl)-c1cc(=O)c(C(=O)O)cn1N1C2CCC12CC2 (stereo not drawn) [Example 59] ?
6

COCCCOc1cc2c(cc1S(C)(=O)=O)-c1cc(=O)c(C(=O)O)cn1N1[C@@H]2CCC1(C)C [Example 69] , same question.
52

Also COCc1cc2c(cc1OCCCOC1COC1)[C@H]1CCC(C)(C)N1n1cc(C(=O)O)c(=O)cc1-2 [Example 94] , if possible.
6

Also, COCc1cc2c(cc1N1CC[C@@H](COC)C1)[C@H]1CCC(C)(C)N1n1cc(C(=O)O)c(=O)cc1-2 [Compound 117] please.
5.3

Next up: COCCCOc1cc2c(cc1Cl)-c1cc(=O)c(C(=O)O)cn1N1[C@@H]2CCC12CC2 (single isomer, unassigned) [Example 56]
1.5

Now give it for COc1cc2c(cc1-c1cnn(C(F)F)c1)[C@H]1CCC(C)(C)N1n1cc(C(=O)O)c(=O)cc1-2 [Example 44] too.
5.5

Now give it for COCCCOc1cc2c(cc1Cl)-c1cc(=O)c(C(=O)O)cn1N1[C@@H](C)CC[C@@H]21 (single isomer, unassigned) [Example 8] too.
200

Another molecule to look at: COc1cc2c(cc1OCCCOCC(F)(F)F)[C@H]1CCC(C)(C)N1n1cc(C(=O)O)c(=O)cc1-2 [Example 60]
1.2

# repeat for CC1(C)CC[C@@H]2c3cc(-c4cnn(C5COC5)c4)c(OC(F)(F)F)cc3-c3cc(=O)c(C(=O)O)cn3N21 [Example 93]
4.4

Repeat for the following molecule: COCCCOc1cc2c(cc1Cl)-c1cc(=O)c(C(=O)O)cn1N1C2CCCC1(C)C (stereo not drawn) [Example 11]
4.3
